Values compiled from patent US12428369B2.

# Test method notes: Equilibrium solubility and dissolution rate in water, SGF, FaSSIF, FeSSIF
# Type: physicochemical
# Condition context: water, 37 °C, thermodynamic from solid, 2 hours
Value kind: solubility at 2 h (µg/mL)
Form entry: value (µg/mL) — number only.

What does the data say about its solubility at 2 h? Entry: Cc1c(/C=C/c2cc(CN[C@@](C)(CO)C(=O)O)ccc2C(F)(F)F)cccc1-c1ccccc1 [Crystal form A] 6

---

# Test method notes: Equilibrium solubility and dissolution rate in water, SGF, FaSSIF, FeSSIF
# Format: physicochemical
# Condition context: simulated gastric fluid (SGF), 37 °C, simulated gastric fluid, thermodynamic from solid, SGF, 0.5 hours
Value kind: solubility at 0.5 h (µg/mL)
Form entry: value (µg/mL) — number only.

What does the data say about its solubility at 0.5 h? Entry: Cc1c(/C=C/c2cc(CN[C@@](C)(CO)C(=O)O)ccc2C(F)(F)F)cccc1-c1ccccc1 [Crystal form B] 0.5

---

# Test method notes: Equilibrium solubility and dissolution rate in water, SGF, FaSSIF, FeSSIF
# Format: physicochemical
# Condition context: FaSSIF as printed (second set of rows), 37 °C, fessif, thermodynamic from solid, FaSSIF, 0.5 hours
Value kind: solubility at 0.5 h (µg/mL)
Form entry: value (µg/mL) — number only.

What does the data say about its solubility at 0.5 h? Entry: Cc1c(/C=C/c2cc(CN[C@@](C)(CO)C(=O)O)ccc2C(F)(F)F)cccc1-c1ccccc1 [Crystal form A] 183

---

# Test method notes: Equilibrium solubility and dissolution rate in water, SGF, FaSSIF, FeSSIF
# Assay type: physicochemical
# Condition context: water, 37 °C, thermodynamic from solid, 0.5 hours
Value kind: solubility at 0.5 h (µg/mL)
Form entry: value (µg/mL) — number only.

What does the data say about its solubility at 0.5 h? Entry: Cc1c(/C=C/c2cc(CN[C@@](C)(CO)C(=O)O)ccc2C(F)(F)F)cccc1-c1ccccc1 [Crystal form A] 1.5

---

# Test method notes: Equilibrium solubility and dissolution rate in water, SGF, FaSSIF, FeSSIF
# Type: physicochemical
# Condition context: FaSSIF as printed (second set of rows), 37 °C, fessif, thermodynamic from solid, FaSSIF, 24 hours
Value kind: solubility at 24 h
Answer with the figure and its unit, nothing else.

What does the data say about its solubility at 24 h? Entry: Cc1c(/C=C/c2cc(CN[C@@](C)(CO)C(=O)O)ccc2C(F)(F)F)cccc1-c1ccccc1 [Crystal form A] 170 µg/mL

---

# Test method notes: Equilibrium solubility and dissolution rate in water, SGF, FaSSIF, FeSSIF
# Type: physicochemical
# Condition context: fasted-state simulated intestinal fluid (FaSSIF), 37 °C, fassif, thermodynamic from solid, 0.5 hours
Value kind: solubility at 0.5 h (µg/mL)
Form entry: value (µg/mL) — number only.

What does the data say about its solubility at 0.5 h? Entry: Cc1c(/C=C/c2cc(CN[C@@](C)(CO)C(=O)O)ccc2C(F)(F)F)cccc1-c1ccccc1 [Crystal form A] 8.7
